Biological target: CYP2A6 (Homo sapiens)
Sequence (P11509 whole entry): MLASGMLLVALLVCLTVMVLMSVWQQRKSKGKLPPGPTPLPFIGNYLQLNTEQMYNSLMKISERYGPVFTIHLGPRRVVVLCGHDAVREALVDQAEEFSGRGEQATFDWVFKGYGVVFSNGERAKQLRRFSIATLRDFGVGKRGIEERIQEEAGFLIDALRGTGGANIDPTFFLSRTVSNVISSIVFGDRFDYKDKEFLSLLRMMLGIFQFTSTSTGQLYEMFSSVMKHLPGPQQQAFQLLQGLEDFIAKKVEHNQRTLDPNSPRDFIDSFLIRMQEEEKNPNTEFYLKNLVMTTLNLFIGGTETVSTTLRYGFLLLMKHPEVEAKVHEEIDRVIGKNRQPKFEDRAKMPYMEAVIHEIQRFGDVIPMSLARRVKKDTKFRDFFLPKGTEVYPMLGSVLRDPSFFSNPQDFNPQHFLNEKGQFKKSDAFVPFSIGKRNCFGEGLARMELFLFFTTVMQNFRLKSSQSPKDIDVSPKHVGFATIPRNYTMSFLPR
Experiment: Inhibition of CYP2A6 in human liver microsomes assessed as enzyme-mediated metabolite formation at 0.1 uM using coumarin as substrate incubated for 5 mins followed by NADPH addition measured after 30 mins by LC-MS/MS analysis relative to control
Format: ADME
Design: scale not given: the % may be the effect or the level left
Conditions: probe coumarin, read-out: Activity
result type: activity at 0.5 h, 0.1 µM (%)

1) CCCCCCCC(=O)CCc1ccc(O)c(OC)c1 | 103

----------
Biological target: CYP2D6 (Homo sapiens, UniProt P10635)
Sequence (P10635 whole entry): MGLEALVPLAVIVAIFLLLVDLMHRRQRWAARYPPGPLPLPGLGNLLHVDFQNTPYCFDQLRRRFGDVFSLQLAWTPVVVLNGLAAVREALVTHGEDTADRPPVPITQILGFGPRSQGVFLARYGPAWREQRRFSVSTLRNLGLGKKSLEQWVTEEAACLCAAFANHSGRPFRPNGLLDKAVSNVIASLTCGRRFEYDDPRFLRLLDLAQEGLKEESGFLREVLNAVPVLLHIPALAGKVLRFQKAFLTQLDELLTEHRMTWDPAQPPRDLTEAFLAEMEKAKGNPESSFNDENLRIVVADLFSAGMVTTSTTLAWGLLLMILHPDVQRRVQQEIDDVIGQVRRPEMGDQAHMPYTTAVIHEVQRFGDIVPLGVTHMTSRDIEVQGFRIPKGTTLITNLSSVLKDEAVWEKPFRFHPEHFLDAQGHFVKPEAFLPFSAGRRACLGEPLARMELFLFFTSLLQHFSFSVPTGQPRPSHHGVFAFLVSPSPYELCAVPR
Test: Inhibition of CYP2D6 in human liver microsomes assessed as enzyme-mediated metabolite formation at 1 uM using dextromethorphan as substrate incubated for 5 mins followed by NADPH addition measured after 30 mins by LC-MS/MS analysis relative to control
Type: ADME
Design: scale not given: the % may be the effect or the level left
Conditions: probe dextromethorphan, read-out: Activity
result type: activity at 0.5 h, 1 µM (%)

1. CCCCCCCC(=O)CCc1ccc(O)c(OC)c1 | 75.9
